Biological target: T1, VPAC1
T1 sequence (P32241 whole entry, species assumed, looked up): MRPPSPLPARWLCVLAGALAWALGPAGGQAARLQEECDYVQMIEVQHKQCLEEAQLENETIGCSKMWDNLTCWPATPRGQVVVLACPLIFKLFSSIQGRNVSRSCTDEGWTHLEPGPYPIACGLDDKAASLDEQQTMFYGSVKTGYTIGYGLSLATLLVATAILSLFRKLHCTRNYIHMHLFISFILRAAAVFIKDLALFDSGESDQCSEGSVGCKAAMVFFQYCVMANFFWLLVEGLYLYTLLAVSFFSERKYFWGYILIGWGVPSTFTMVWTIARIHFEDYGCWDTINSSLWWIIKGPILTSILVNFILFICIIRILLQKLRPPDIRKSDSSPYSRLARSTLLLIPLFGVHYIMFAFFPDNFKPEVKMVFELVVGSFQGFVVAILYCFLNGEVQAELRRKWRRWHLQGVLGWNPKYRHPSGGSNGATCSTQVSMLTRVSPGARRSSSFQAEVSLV
Experiment: cell-based or functional assay
Where no end group is shown, it is not given here. [ ]: non-standard residue; d: D form. The star is where a group is joined. βGlc = OC[C@H]1O[C@@H](*)[C@H](O)[C@@H](O)[C@@H]1O; Nle = CCCC[C@H](N)C(=O)O
Collected EMax (agonist) values appear next to each entry.
Kindly provide the numeric value in % only, without the unit symbol.

What value of EMax (agonist) has been reported for the following binder? HSDGIFTDSYSRYRKQXAVKKYLAAVLS (D-Serine at 2 (s); L-Nor-Leucine at 17 (Ñ, written X in letters); Ser 28 = L-Ser(β-D-Glc)) [HsDGIFTDSYSRYRKQÑAVKKYLAAVL-Ser(Glc)]
90

May I ask what EMax (agonist) has been recorded for HSDGIFTDSYSRYRKQMAVKKYLAAVL (ends and bridges not checked) [PACAP1-27] ?
100

# query: EMax (agonist) of entry HSDGIFADSYSRYRKQXAVKKYLAAVLS (D-Serine at 2 (s); L-Nor-Leucine at 17 (Ñ, written X in letters); Ser 28 = L-Ser(β-D-Glc)) [HsDGIFADSYSRYRKQÑAVKKYLAAVL-Ser(Glc)]
93

---
Given the binder HSDGIFTDSYSRYRKQXAVKKYLAAVS (D-Serine at 2 (s); L-Nor-Leucine at 17 (Ñ, written X in letters); Ser 27 = L-Ser(β-D-Glc)) [HsDGIFTDSYSRYRKQÑAVKKYLAAV-Ser(Glc)] , what is its reported EMax (agonist)?
90

Entry H[dS]DGIFTDSYSRYRKQ[Nle]AVKKYLAALS(βGlc)L-NH2 (ends and bridges not checked) [HsDGIFTDSYSRYRKQÑAVKKYLAAL-Ser(Glc)-L] : reported EMax (agonist) = ?
93

Fill in: EMax (agonist) of HSDGIFTDSYSRYRKQLAVKKYLAAVLS(melibiose)-NH2 [HSDGIFTDSYSRYRKQLAVKKYLAAVL-Ser(Mel)] is ___
102

Which EMax (agonist) is reported for this binder? HSDGIFADSYSRYRKQXAVKKYLAAVS (D-Serine at 2 (s); L-Nor-Leucine at 17 (Ñ, written X in letters); Ser 27 = L-Ser(β-D-Glc)) [HsDGIFADSYSRYRKQÑAVKKYLAAV-Ser(Glc)]
85

Entry H[dS]DGIFADSYSRYRKQ[Nle]AVKKYLAAVS(βGlc)L-NH2 (ends and bridges not checked) [HsDGIFADSYSRYRKQÑAVKKYLAAV-Ser(Glc)-L] has what EMax (agonist)?
78

These measurements were taken from patent US20240294595A1.
